test: Half life was reported; assay type: ADME
Answer each item with its documented half-life.
Form entry: enter the amount, then its unit.

Asked: Entry C[C@@H]1CC[C@H]2[C@@H](C)CO[C@@H]3O[C@]4(C)CC[C@@H]1[C@]32OO4 has what half-life?
Given back: 245 h

Asked: Entry C[C@@H]1[C@H](OCc2ccc(C(=O)O)cc2)O[C@@H]2O[C@@]3(C)CC[C@@H]4[C@@H](C)CC[C@@H]1[C@]24OO3 has what half-life?
Given back: 13.1 h

Asked: Entry CCO[C@H]1O[C@@H]2O[C@@]3(C)CC[C@H]4[C@H](C)CC[C@@H]([C@H]1C)[C@@]24OO3 has what half-life?
Given back: 11 h

Asked: Entry C[C@H]1[C@@H](CCc2ccc(C(=O)O)cc2)O[C@@H]2O[C@]3(C)CC[C@H]4[C@H](C)CC[C@@H]1[C@@]24OO3 has what half-life?
Given back: 259 h

Asked: Entry CCCC[C@H]1O[C@@H]2O[C@]3(C)CC[C@H]4[C@H](C)CC[C@@H]([C@H]1C)[C@@]24OO3 has what half-life?
Given back: 187 h

* * *

test system: Plasmodium falciparum; assay: In vitro antimalarial activity against chloroquine-sensitive Plasmodium falciparum 3D7; assay type: functional; settings: read-out: ED50 (the source's name)
readout_name: EC50 (ng/mL)
// note: answer is a bare numeric in ng/mL

Asked: Entry CCN(CC)CCCC(C)Nc1ccnc2cc(Cl)ccc12 (stereo unspecified) has what EC50?
Given back: 8

Asked: Entry CCO[C@H]1O[C@@H]2O[C@@]3(C)CC[C@H]4[C@H](C)CC[C@@H]([C@H]1C)[C@@]24OO3 has what EC50?
Given back: 0.2

Asked: Entry C[C@@H]1[C@H](OCc2ccc(C(=O)O)cc2)O[C@@H]2O[C@@]3(C)CC[C@@H]4[C@@H](C)CC[C@@H]1[C@]24OO3 has what EC50?
Given back: 4

Asked: Entry C[C@H]1[C@H](OC(=O)CCC(=O)O)O[C@@H]2O[C@@]3(C)CC[C@H]4[C@H](C)CC[C@@H]1[C@@]24OO3 [ARTESUNATE] has what EC50?
Given back: 0.2

Asked: Entry C[C@H]1[C@@H](CCc2ccc(C(=O)O)cc2)O[C@@H]2O[C@]3(C)CC[C@H]4[C@H](C)CC[C@@H]1[C@@]24OO3 has what EC50?
Given back: 1.1

Asked: Entry C[C@@H]1CC[C@H]2[C@@H](C)C(=O)O[C@@H]3O[C@@]4(C)CC[C@@H]1[C@]32OO4 has what EC50?
Given back: 2.9
